- Experiment Description: NCI Yeast Anticancer Drug Screen. Data for the mec2-1 strain (AID 157)
- Conditions: S. cerevisiae mec2-1 strain, at 50.0 µM (retest, dose inferred, filed as 5.0), active compounds read high
The panel holds about 79,000 compounds, 15% with a hit somewhere; the sample as a whole holds those more often.
// reported growth inhibition per item
Respond numerically; units are % and should not be typed.

Consider the worked cases shown below.
O=NNc1nc(-c2ccccn2)nc2ccccc12 = 99
O=C(CC(=O)c1ccc(O)cc1)c1ccccc1 = 52
Nc1ccc2c(SCc3ccc([N+](=O)[O-])cc3)c3ccccc3nc2c1 = 94
c1nc(N2CCOCC2)c2[nH]cnc2n1 = -7
O=C1/C(=C/c2ccc(Cl)cc2)CCC/C1=C\c1ccc(O)c(CN2CCCCC2)c1 = 17

Suppose we examine the molecule c1ccc(C2=NC(=c3ccc(=C4N=C(c5ccccc5)C(c5ccccc5)=N4)cc3)N=C2c2ccccc2)cc1 ; what growth inhibition value has been reported? 17

Record: O=Cc1ccc(/C=N\Nc2ccccc2)cc1 0

Record: COc1ccccc1NC(=O)/C(=C\N1C(=O)/C(=C/c2cc(OC)c(OC)c(OC)c2)SC1=S)C(C)=O 14

Record: CCc1c(C)[nH]c2c([N+](=O)[O-])cccc12 -14

Record: CC1=NOC(=O)/C1=C/C=C/c1ccccc1 79

Record: O=[N+]([O-])c1ccc(-c2ccccc2Cl)c([N+](=O)[O-])c1 92

These data points were gathered from PubChem BioAssay (NCI).
